Recorded values, source patent USRE37623E1.

- Assay remarks: Pharmacokinetics of PSAU in CD-1 mice
- Type: in vivo
- Measurement parameters: mouse, ip; PSAU 60 mg/kg i.p., female CD-1 mice, plasma; read-out: Cmax, peak plasma concentration
- Procedure: PSAU was injected i.p. into female CD-1 mice. At various time intervals, 250 μl of whole blood were collected from the orbital sinuses from three mice by a heparinized Natelson pipet and placed on ice. […] Elimination half-life of uridine was calculated from 0.693/K The total plasma clearance (C1) was calculated by dividing the dose by the AUC and the weight of the mouse. […] Renal clearance (CLR) of uridine was calculated by dividing the […] by the AUC.
Outcome measure: Cmax (µM)

{"columns": ["Compound", "Observed"],
 "data": [
  ["O=c1[nH]c(=O)n(COCCO)cc1[Se]c1ccccc1 [PSAU]", 210]
]}
